Assignment: determine reported IC50 for the given compounds.
target: SARM1 SAM-TIR (Homo sapiens (Human)); experiment: biochemical; conditions: SAM-TIR lysate 5 μg/mL, 2 hr pre-incubation, 5 μM NAD+, RapidFire MS

Challenge: Hello, please tell me recorded IC50 for this one: `O=c1[nH]cc(I)c2ccncc12`
Response given: < 5 µM

Challenge: Given `Brc1cncc2cnccc12` , respond with its IC50.
Response given: < 5 µM

Challenge: Give IC50 for `Nc1nccc2c(C3CC3)cccc12`
Response given: > 30 µM

Challenge: Identify IC50 associated with the compound `Cc1cncc2ccccc12`
Response given: 5 to 15 µM

Challenge: Respond only with IC50 recorded for `COc1cccc2ccncc12`
Response given: < 5 µM

Challenge: Quickly give me recorded IC50 for `COc1ccc(Br)c2ccncc12`
Response given: < 5 µM

Challenge: Identify measured IC50 associated with `O=c1[nH]ccc2ccncc12`
Response given: < 5 µM

Challenge: Specify measured IC50 for `Clc1ccc(Cl)c2cnccc12` .
Response given: 5 to 15 µM

Challenge: Identify measured IC50 corresponding to `Nc1ccc(Br)c2ccncc12`
Response given: < 5 µM

Challenge: For `Cn1cc(Br)c2ccncc2c1=O` , write its IC50.
Response given: < 5 µM

Challenge: Consider the compound `C#Cc1cccc2cnccc12` . State its measured IC50.
Response given: < 5 µM

Challenge: Fill in reported IC50 for this entry: `Brc1cccc2cncnc12`
Response given: > 30 µM

Challenge: Read the entry `O=c1[nH]ncc2ccc(F)cc12` and write its reported IC50.
Response given: > 30 µM

Challenge: Given `Oc1cccc2cnccc12` , respond with its IC50.
Response given: < 5 µM

Challenge: For the compound `O=c1[nH]cnc2ccncc12` , report IC50.
Response given: 15 to 30 µM

Challenge: Let me know recorded IC50 for `CC(=O)c1cccc2cnccc12` , thanks.
Response given: 15 to 30 µM

Challenge: Please report the measured IC50 for `c1ccc2nnccc2c1`
Response given: < 5 µM

Challenge: Return value of IC50 for input `Nc1ccc(O)c2cnccc12` , no commentary.
Response given: < 5 µM

Challenge: Kindly indicate its recorded IC50. Item: `CNC(=O)Nc1ncc(Br)c2ccncc12`
Response given: 5 to 15 µM

Challenge: Let me know recorded IC50 for `O=C(O)c1ccnc2cnccc12` , thanks.
Response given: 15 to 30 µM

Challenge: Please report the measured IC50 for `Ic1cccc2cnncc12`
Response given: < 5 µM

Challenge: Consider the compound `O=c1[nH]cc(Br)c2ccncc12` . State its measured IC50.
Response given: < 5 µM

Challenge: Specify reported IC50 for the compound shown: `Nc1ccc2cnccc2c1Cl`
Response given: 15 to 30 µM

Challenge: Name the recorded IC50 of the item `Brc1ccnc2cnccc12` in your answer.
Response given: < 5 µM

Challenge: State its IC50: `O=c1[nH]ccc2ccc(O)cc12`
Response given: > 30 µM

Challenge: State its IC50 for this compound: `Oc1ccc(Br)c2ccncc12`
Response given: < 5 µM

Challenge: Name the recorded IC50 of the compound listed here: `c1ccc2cnccc2c1`
Response given: 5 to 15 µM

* * *

Provide the recorded IC50 for the entries that follow.
molecular target: SARM1 SAM-TIR (Homo sapiens (Human), UniProt Q6SZW1); assay: biochemical; details: SAM-TIR lysate 5 μg/mL, 2 hr pre-incubation, 5 μM NAD+, RapidFire MS
Sequence (Q6SZW1 409-724): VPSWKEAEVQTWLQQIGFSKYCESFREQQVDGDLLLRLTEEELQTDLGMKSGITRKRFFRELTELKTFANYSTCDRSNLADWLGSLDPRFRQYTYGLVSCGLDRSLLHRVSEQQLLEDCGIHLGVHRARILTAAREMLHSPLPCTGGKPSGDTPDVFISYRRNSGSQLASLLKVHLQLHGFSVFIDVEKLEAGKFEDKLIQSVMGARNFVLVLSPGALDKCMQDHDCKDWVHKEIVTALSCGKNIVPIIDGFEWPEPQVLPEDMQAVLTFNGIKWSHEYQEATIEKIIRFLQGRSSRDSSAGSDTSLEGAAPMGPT

Challenge: GET IC50 | system: SARM1 SAM-TIR (Homo sapiens (Human), UniProt Q6SZW1) | item: `Brc1cncc2ccccc12`
Response given: 15 to 30 µM

Challenge: Tell me IC50 of `COc1ncc(C2CC2)c2ccncc12` when tested on SARM1 SAM-TIR (Homo sapiens (Human), UniProt Q6SZW1).
Response given: > 30 µM

Challenge: Please respond with reported IC50 (system SARM1 SAM-TIR (Homo sapiens (Human), UniProt Q6SZW1)) for `Clc1cccc2cnccc12` .
Response given: < 5 µM

Challenge: Report IC50 from SARM1 SAM-TIR (Homo sapiens (Human), UniProt Q6SZW1) testing of `O=[N+]([O-])c1cccc2cnccc12`
Response given: 5 to 15 µM

Challenge: Name the value of IC50 reported for `Nc1nccc2ccncc12` when tested on SARM1 SAM-TIR (Homo sapiens (Human), UniProt Q6SZW1).
Response given: > 30 µM

Challenge: Quote IC50 with test system SARM1 SAM-TIR (Homo sapiens (Human), UniProt Q6SZW1) for `Oc1cccc2ccncc12`
Response given: < 5 µM

Challenge: For SARM1 SAM-TIR (Homo sapiens (Human), UniProt Q6SZW1), give IC50 of the listed compound: `Nc1nccc2c(I)cccc12`
Response given: < 5 µM

Challenge: Report the value of IC50 obtained on SARM1 SAM-TIR (Homo sapiens (Human), UniProt Q6SZW1) for `Nc1ncc(Br)c2ccncc12` .
Response given: < 5 µM

Challenge: State IC50 (SARM1 SAM-TIR (Homo sapiens (Human), UniProt Q6SZW1)) of `O=c1[nH]cc([N+](=O)[O-])c2ccncc12` .
Response given: > 30 µM

Challenge: Would you please give the reported IC50 of `COc1cc(Br)c2ccncc2n1` with SARM1 SAM-TIR (Homo sapiens (Human), UniProt Q6SZW1)?
Response given: < 5 µM

Challenge: Retrieve IC50 on SARM1 SAM-TIR (Homo sapiens (Human), UniProt Q6SZW1); query `CC(C)(O)c1cccc2cnccc12`
Response given: > 30 µM

Challenge: State IC50 (SARM1 SAM-TIR (Homo sapiens (Human), UniProt Q6SZW1)) of `O=c1[nH]cc(Br)c2cc[n+]([O-])cc12` .
Response given: > 30 µM

Challenge: Check SARM1 SAM-TIR (Homo sapiens (Human), UniProt Q6SZW1) data and give IC50 for `COc1ncc(Br)c2ccncc12` .
Response given: 5 to 15 µM

Challenge: Lab note: record IC50 of `c1cc(C2CC2)c2ccncc2c1` tested on SARM1 SAM-TIR (Homo sapiens (Human), UniProt Q6SZW1).
Response given: 5 to 15 µM

Challenge: Quote SARM1 SAM-TIR (Homo sapiens (Human), UniProt Q6SZW1) IC50 for entry `Cc1cc2c(N)cccc2cn1` .
Response given: 5 to 15 µM

Challenge: Quote SARM1 SAM-TIR (Homo sapiens (Human), UniProt Q6SZW1) IC50 for entry `CC(C)Oc1cccc2cnccc12` .
Response given: > 30 µM

Challenge: Report measured IC50 on SARM1 SAM-TIR (Homo sapiens (Human), UniProt Q6SZW1); entry: `COc1cc2cc[nH]c(=O)c2cc1F`
Response given: > 30 µM

Challenge: Lab note: SARM1 SAM-TIR (Homo sapiens (Human), UniProt Q6SZW1) assay, enter IC50 for `Brc1cccc2cnncc12` here
Response given: < 5 µM

Challenge: Give IC50 for this entry on SARM1 SAM-TIR (Homo sapiens (Human), UniProt Q6SZW1): `Fc1cc(Cl)c2ccncc2c1`
Response given: < 5 µM

Challenge: Provide IC50, tested on SARM1 SAM-TIR (Homo sapiens (Human), UniProt Q6SZW1), for `Nc1ccnc2cnccc12` .
Response given: 5 to 15 µM

Challenge: Specify IC50 for `CNc1ncc(Br)c2ccncc12` , system SARM1 SAM-TIR (Homo sapiens (Human), UniProt Q6SZW1).
Response given: < 5 µM

Challenge: Under SARM1 SAM-TIR (Homo sapiens (Human), UniProt Q6SZW1): report IC50 of `CSc1cccc2cnccc12` .
Response given: 5 to 15 µM

Challenge: Fill in IC50 for `Nc1cccc2cncc(Br)c12` tested with SARM1 SAM-TIR (Homo sapiens (Human), UniProt Q6SZW1).
Response given: 15 to 30 µM

Challenge: For SARM1 SAM-TIR (Homo sapiens (Human), UniProt Q6SZW1), give IC50 of the listed compound: `O=c1[nH]ccc2c(Br)cccc12`
Response given: 5 to 15 µM

Challenge: // output IC50; input `Brc1cccc2cnccc12` ; system SARM1 SAM-TIR (Homo sapiens (Human), UniProt Q6SZW1)
Response given: < 5 µM

Challenge: Give SARM1 SAM-TIR (Homo sapiens (Human), UniProt Q6SZW1) IC50 for the following compound: `NCc1cccc2cnccc12`
Response given: 15 to 30 µM

Challenge: # return IC50 of `Brc1ccc2cnncc2c1` (system: SARM1 SAM-TIR (Homo sapiens (Human), UniProt Q6SZW1))
Response given: > 30 µM

The measurements presented in this section are drawn from patent US12338238B2.
